experimental-target: T1, human GIP receptor (human) (UniProt P48546)
T1 sequence (looked up): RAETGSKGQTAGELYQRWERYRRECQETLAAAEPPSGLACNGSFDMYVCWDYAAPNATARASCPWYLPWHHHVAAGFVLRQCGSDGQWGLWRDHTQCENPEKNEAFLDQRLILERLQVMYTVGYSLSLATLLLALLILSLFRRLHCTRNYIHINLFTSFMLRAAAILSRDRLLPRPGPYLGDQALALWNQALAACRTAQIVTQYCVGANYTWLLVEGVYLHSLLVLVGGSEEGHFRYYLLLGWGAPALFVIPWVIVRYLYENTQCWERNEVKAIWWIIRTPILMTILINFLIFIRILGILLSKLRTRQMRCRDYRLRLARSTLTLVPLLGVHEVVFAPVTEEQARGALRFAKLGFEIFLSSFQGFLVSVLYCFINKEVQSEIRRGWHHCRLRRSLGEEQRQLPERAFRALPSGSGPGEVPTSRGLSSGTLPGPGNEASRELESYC
assay-overview: cell-based or functional assay
Would you mind telling me the reported cAMP Rel EC50 (1% HSA) of each entry?
Answer with a number only, understood to be in nM.

Lookup: Name the recorded cAMP Rel EC50 (1% HSA) for YXQGTXTSDXXIXLDXKAQXEFIQXLIEGGPSSGAPPPSGS (synthetic construct; SITE 2: note = 2-Aminoisobutyric Acid; SITE 6: note = alpha-methyl-2-fluoro-L-phenylalanine; SITE 10: note = 3-(4-Pyridyl)-L-alanine; SITE 11: note = alpha-methyl-L-serine; SITE 13: note = alpha-methyl-leucine; SITE 16: note = L-ornithine; SITE 17: note = Lysine is chemically mo) [Example 1202] .
Found: 0.471

Lookup: Name the recorded cAMP Rel EC50 (1% HSA) for YXQGTFTSDXSQXLDXKAQXAFIEYLLAGGPSSGAPPPSGSEE (non-natural residues, lipidated Lys, C-terminal amide; synthetic construct; SITE 2: note = 2-Aminoisobutyric Acid; SITE 10: note = 3-(4-Pyridyl)-L-alanine; SITE 13: note = alpha-methyl-leucine; SITE 16: note = L-ornithine; SITE 17: note = Lysine is chemically modified through conjugation of the epsilon-amino group of the Lysine side chain with (Glu)-(ga)) [Example 1057] .
Found: 25.9

Lookup: Name the recorded cAMP Rel EC50 (1% HSA) for YXQGTFTSDXSQXLDXKAQXAFIEXLIAXGPSSGEPPPSGSEE (not fully specified; non-natural residues; Lys acylated γGlu-C18 diacid; C-terminal amide; synthetic construct; SITE 2: note = 2-Aminoisobutyric Acid; SITE 10: note = 3-(4-Pyridyl)-L-alanine; SITE 13: note = alpha-methyl-leucine; SITE 16: note = L-ornithine; SITE 17: note = Lysine is chemically modified through conjugation of the epsilon-amino group of the Lysine side chain with D-Glutami) [Example 1105] .
Found: 5.59
